Values compiled from patent US20260008847A1.

molecular target: T1, 6×His-tagged human LILRB2 ECD recombinant protein (human, UniProt Q8N423 22-458, limits assumed); assay: Octet, 1:1 model; column printed as 'kd (1/s)', heads of c4 and c5 are swapped
T1 construct: Bought protein; not shown: 6×His-tag
T1 sequence (Q8N423 22-458 limits assumed): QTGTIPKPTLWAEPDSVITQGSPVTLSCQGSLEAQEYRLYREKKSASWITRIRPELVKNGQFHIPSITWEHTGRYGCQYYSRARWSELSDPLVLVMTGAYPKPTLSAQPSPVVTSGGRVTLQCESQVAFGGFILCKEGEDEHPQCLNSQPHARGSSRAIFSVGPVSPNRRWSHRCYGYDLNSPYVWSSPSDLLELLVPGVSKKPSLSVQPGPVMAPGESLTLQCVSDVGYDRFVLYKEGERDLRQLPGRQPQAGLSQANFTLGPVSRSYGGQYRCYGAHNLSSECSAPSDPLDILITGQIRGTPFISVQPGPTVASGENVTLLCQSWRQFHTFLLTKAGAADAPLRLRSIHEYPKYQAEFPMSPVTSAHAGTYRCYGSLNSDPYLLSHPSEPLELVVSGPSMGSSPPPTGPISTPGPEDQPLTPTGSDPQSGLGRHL
quantity kind: kon (M⁻¹ s⁻¹)
Give the quantity in M⁻¹ s⁻¹, number only.

hu043.03 (antibody, V domains shown, Humanized human IgG4 antibody with S228P in the constant region; also called hu043VH8 / hu043VL4) VH: QVQLQQSGAEVKKPGASVKLSCKASGYTFTSYWMYWVRQRPGQGLEWIGHINPSSGYTKYNQKFKDRATLTADTSTSTAYMELSSLRSEDTAVYYCARDPNWDNYWGQGTTVTVSS VL: DIVMTQSPSSLSASVGDRVSITCKASQDVSIAVAWYQQKPGKAPKLLIYSASYRYTGVPDRFSGSGSGTDFTFTISSLQPEDIATYYCQQHYSTPYTFGGGTKLEIK    466000
hu043.04 (antibody, V domains shown, Humanized human IgG4 antibody with S228P in the constant region; also called hu043VH6 / hu043VL2) VH: QVQLVQSGAEVKKPGASVKVSCKASGYTFTSYWMYWVRQAPGQGLEWIGHINPSSGYTKYNQKFKDRATLTADTSTSTAYMELSSLRSEDTAVYYCARDPNWDNYWGQGTTVTVSS VL: DIQMTQSPSSLSASVGDRVTITCKASQDVSIAVAWYQQKPGKAPKLLIYSASYRYTGVPSRFSGSGSGTDFTFTISSLQPEDIATYYCQQHYSTPYTFGGGTKLEIK    488000
hu043.05 (antibody, V domains shown, Humanized human IgG4 antibody with S228P in the constant region; also called hu043VH7 / hu043VL2) VH: QVQLVQSGAEVKKPGASVKVSCKASGYTFTSYWMYWVRQAPGQGLEWIGHINPSSGYTKYNQKFKDRVTMTADTSTSTVYMELSSLRSEDTAVYYCARDPNWDNYWGQGTTVTVSS VL: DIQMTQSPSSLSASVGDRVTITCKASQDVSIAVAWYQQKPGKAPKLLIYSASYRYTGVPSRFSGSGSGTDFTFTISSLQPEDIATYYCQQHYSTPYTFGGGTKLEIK    501000

Proceeding to the next binder to report its kon.
Data request, read-out kon, for 043c (antibody, V domains shown, Human IgG4 chimeric antibody with S228P mutation at the Fc region; also called chimeric antibody 043c; parental antibody 043c) VH: QVQLQQSGAELAKPGASVKLSCKASGYTFTSYWMYWVKQRPGQGLEWIGHINPSSGYTKYNQKFKDKATLTADKSSSTAYMQLSSLTYEDSAVYYCARDPNWDNYWGQGTTLTVSS VL: DIVMTQSHKFMSTSVGDRVSITCKASQDVSIAVAWYQQKPGQSPKLLIYSASYRYTGVPDRFTGSGSGTDFTFTISSVQAEDLAVYYCQQHYSTPYTFGGGTKLEIK
494000
